system: Fibroblast; assay: Incucyte cell viability with human fibroblast; type: toxicity, cell-based; conditions: 18 h, 10 µM, compound concentration 10 uM, replicate number 1, timepoint 18 hours; also: filed as whole numbers so only -1 and 0 and 1 occur
Property: Growth Rate
Output spec: single numeric token, no unit.

Example entries begin here.
[in] Entry O=C(O)[C@@H]1[C@@H](Cn2nnc3ccccc3c2=O)CC[C@H]1C(=O)c1ccc(OCCC2CCOCC2)cc1 [BAY-694] : reported Growth Rate = ?
[out] 1

[in] Entry CN1C(=O)[C@@H](N2CCc3cn(Cc4ccccc4)nc3C2=O)COc2ccccc21 [TP-030-1] : reported Growth Rate = ?
[out] 0

[in] Entry Cc1nc(C2CCN(C(=O)c3ccc(OC(F)(F)F)cc3N)CC2)c2ncc(N3CCN(C)CC3)cc2n1 [BAY-693] : reported Growth Rate = ?
[out] 1

Further cases:
[in] Entry `CN(C)C(=O)/C(C#N)=C/c1ccc(-c2nc3cnc4[nH]ccc4c3n2C2CCCCC2)o1` : reported Growth Rate = ?
[out] 0

* * *

system: U2OS; test: Multiplex assay against U2OS; type: toxicity, cell-based; conditions: human, 12 h, 1 µM, compound concentration 1 uM, replicate 2
Examples of molecules with documented Population Hoechst High Intensity Objects (%) follow.
Numeric answer only, unit % assumed.

Example entries begin here.
[in] Entry `COc1cc(-n2cnc3cc(-c4ccc(Cl)cc4)sc3c2=O)ccc1OCCN1CCCC1` : reported Population Hoechst High Intensity Objects (%) = ?
[out] 16

[in] Entry Cc1nc(-c2cn3c(n2)-c2ccc(-c4cnn(C(C)(C)C(N)=O)c4)cc2OCC3)n(C(C)C)n1 [TASELISIB] : reported Population Hoechst High Intensity Objects (%) = ?
[out] 12

[in] Entry C[C@@]1(C(=O)Nc2ccc(F)nc2)CCCN1c1nc(Nc2cc(C3CC3)n[nH]2)c2cccn2n1 [BMS-754807] : reported Population Hoechst High Intensity Objects (%) = ?
[out] 27

Further cases:
[in] Entry `Cc1csc2c(N[C@@H](C)CN3CCN(S(=O)(=O)c4ccc(Cl)c(Cl)c4)CC3)ncnc12` : reported Population Hoechst High Intensity Objects (%) = ?
[out] 5

[in] Entry `CC(C)(O)CNc1ncc(-c2ccnc(Nc3ccnc(Cl)c3)n2)c(CC2CC2)n1` : reported Population Hoechst High Intensity Objects (%) = ?
[out] 5

[in] Entry Cl.N#Cc1ccc2[nH]cc(CCCCN3CCN(c4ccc5oc(C(N)=O)cc5c4)CC3)c2c1 [VILAZODONE HYDROCHLORIDE] : reported Population Hoechst High Intensity Objects (%) = ?
[out] 2

* * *

Examples of molecules with documented Population Fragmented Nuclei (%) follow.
tested on: Fibroblast; assay: Multiplex assay against human fibroblast; assay type: toxicity, cell-based; conditions: 48 h, 10 µM, compound concentration 10 uM, replicate 1
Numeric answer only, unit % assumed.

Example entries begin here.
[in] Entry `C=CC(=O)Nc1ccc2ncnc(Nc3ccc(OCc4cccc(F)c4)c(Cl)c3)c2c1.Cc1ccc(S(=O)(=O)O)cc1` : reported Population Fragmented Nuclei (%) = ?
[out] 40

[in] Entry `Cc1[nH]c(/C=C2\C(=O)Nc3ccc(S(=O)(=O)N(C)c4cccc(Cl)c4)cc32)c(C)c1C(=O)N1CCN(C)CC1` : reported Population Fragmented Nuclei (%) = ?
[out] 40

[in] Entry CN(C)C(=O)N[C@H]1CC[C@H](CCN2CCN(c3cccc(Cl)c3Cl)CC2)CC1.Cl [CARIPRAZINE HYDROCHLORIDE] : reported Population Fragmented Nuclei (%) = ?
[out] 37

[in] Entry `COc1cc(-n2cnc3cc(-c4ccc(Cl)cc4)sc3c2=O)ccc1OCCN1CCCC1` : reported Population Fragmented Nuclei (%) = ?
[out] 52

[in] Entry `CCn1c(=O)c(-c2ccc(Cl)cc2Cl)cc2cnc(Nc3ccc(N4CCNCC4)c(F)c3)nc21` : reported Population Fragmented Nuclei (%) = ?
[out] 36

Further cases:
[in] Entry CN(C)CC#Cc1ccc(OCCCc2sc(N3CCc4cccc(C(=O)Nc5nc6ccccc6s5)c4C3)nc2C(=O)O)c(F)c1 [A-1155463] : reported Population Fragmented Nuclei (%) = ?
[out] 38

Origin of values: ChEMBL document CHEMBL4689842
